- System: Fer (mouse)
- method_notes: phosphorylation enrichment, bacterial display (enrichment ratio); higher = better substrate or ligand; peptides without Tyr show the background;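 note: 11-residue human phosphosite peptides and single-mutation variants displayed on the E. coli surface, counted by deep sequencing, each peptide's frequency after selection divided by its frequency in the unselected input library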;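 note: frequency after pTyr selection over input frequency; kinase dosed for 20-30% of maximal phosphorylation in three min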
measure_name: phosphorylation enrichment
# output: bare number, no unit

Query block: Provide measured phosphorylation enrichment value, entry: HPFHVYPQPGM [BAG3_Y114]
Result block: 0.499

Query block: Provide measured phosphorylation enrichment value, entry: APGDAYGDAGY [SYP_Y250]
Result block: 0.512

Query block: Provide measured phosphorylation enrichment value, entry: KNITEYCRDLI [RECQL_Y492]
Result block: 0.502

Query block: Provide measured phosphorylation enrichment value, entry: DPNQQYYIAMD [TBX15_Y159_H156N]
Result block: 0.487

Query block: Provide measured phosphorylation enrichment value, entry: FRARAYGFRGP [CHGA_Y381]
Result block: 0.532

Query block: Provide measured phosphorylation enrichment value, entry: PCLLRYLQLDF [ASB10_Y457_R453C]
Result block: 0.968

Query block: Provide measured phosphorylation enrichment value, entry: GRRNTCFASIA [ACADM_Y352_Y352C_YF]
Result block: 0.424

Query block: Provide measured phosphorylation enrichment value, entry: HQEPVCSVAFS [TBL1X_Y509_Y509C]
Result block: 0.874

Query block: Provide measured phosphorylation enrichment value, entry: RVEDAYILTCN [CCT6A_Y229]
Result block: 4.93

Query block: Provide measured phosphorylation enrichment value, entry: GAALAYGLDKS [HSPA9_Y230_A225G]
Result block: 0.411

Query block: Provide measured phosphorylation enrichment value, entry: KIIRRYVSSEG [ANK2_Y3907]
Result block: 0.365

Query block: Provide measured phosphorylation enrichment value, entry: SNKLYYQLEQE [PDPR_Y110]
Result block: 0.601

Query block: Provide measured phosphorylation enrichment value, entry: IDAVCYFRMEN [NPHS2_Y194_I192V_YF]
Result block: 0.641

Query block: Provide measured phosphorylation enrichment value, entry: SNVEQYQAMVT [TPR_Y965]
Result block: 0.457

Query block: Provide measured phosphorylation enrichment value, entry: RPSRWYQFRVA [ANOS1_Y259]
Result block: 1.03

Query block: Provide measured phosphorylation enrichment value, entry: RVAFQYGVTDL [MYBPC3_Y340_I336V]
Result block: 0.576

Query block: Provide measured phosphorylation enrichment value, entry: LARDIYKNDYY [ROS1_Y2110]
Result block: 0.369

Query block: Provide measured phosphorylation enrichment value, entry: TKQLTYEEQYL [PIK3C3_Y310_D314Y]
Result block: 0.965

Query block: Provide measured phosphorylation enrichment value, entry: IMICAYLLHRG [PTEN_Y138_V133I]
Result block: 0.827

Query block: Provide measured phosphorylation enrichment value, entry: FEREQYADRTR [RBM4_Y355_A359T_YF]
Result block: 0.436

----------
Kindly supply the reported phosphorylation enrichment values for the records listed here.
- target_entity: FGFR3 (UniProt P22607)
- Sequence (P22607 whole entry, looked up): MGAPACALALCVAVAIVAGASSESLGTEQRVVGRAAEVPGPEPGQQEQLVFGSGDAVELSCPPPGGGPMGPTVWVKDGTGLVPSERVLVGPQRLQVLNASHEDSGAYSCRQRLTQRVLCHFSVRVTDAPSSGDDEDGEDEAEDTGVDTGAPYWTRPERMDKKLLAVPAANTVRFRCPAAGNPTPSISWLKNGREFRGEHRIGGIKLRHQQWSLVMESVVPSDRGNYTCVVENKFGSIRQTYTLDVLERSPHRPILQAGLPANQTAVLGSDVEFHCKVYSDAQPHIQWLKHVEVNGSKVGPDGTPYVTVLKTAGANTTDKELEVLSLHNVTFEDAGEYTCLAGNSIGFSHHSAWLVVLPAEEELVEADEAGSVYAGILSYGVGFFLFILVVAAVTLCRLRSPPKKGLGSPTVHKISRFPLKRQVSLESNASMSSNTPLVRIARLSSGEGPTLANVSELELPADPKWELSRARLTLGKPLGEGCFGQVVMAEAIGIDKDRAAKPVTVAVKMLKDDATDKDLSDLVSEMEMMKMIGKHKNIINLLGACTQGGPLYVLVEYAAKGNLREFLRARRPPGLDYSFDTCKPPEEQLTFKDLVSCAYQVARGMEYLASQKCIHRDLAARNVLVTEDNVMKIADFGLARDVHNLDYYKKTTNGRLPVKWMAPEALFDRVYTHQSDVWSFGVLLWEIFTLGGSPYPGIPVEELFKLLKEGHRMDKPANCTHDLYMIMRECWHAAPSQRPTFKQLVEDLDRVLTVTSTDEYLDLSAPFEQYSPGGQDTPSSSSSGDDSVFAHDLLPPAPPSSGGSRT
- method_notes: phosphorylation enrichment, bacterial display (enrichment ratio); higher = better substrate or ligand; peptides without Tyr show the background
# output: bare number, no unit

Query block: Provide measured phosphorylation enrichment value, entry: HQEPVCSVAFS [TBL1X_Y509_Y509C]
Result block: 1.1

Query block: Provide measured phosphorylation enrichment value, entry: PMFHSYVSLPF [PLXNA2_Y293_K289M]
Result block: 2.26

Query block: Provide measured phosphorylation enrichment value, entry: FVHDNYVIRRT [CPS1_Y1450]
Result block: 0.467
